target: Glutamate NMDA receptor; Grin1/Grin2c (Rattus norvegicus, UniProt P35439+Q00961); test: Inhibition of recombinant rat GluN1a/GluN2C co-expressed in HEK293 cells assessed as suppression of glutamate-induced current by patch-clamp method
Sequence (Q00961 whole entry, other chains not shown): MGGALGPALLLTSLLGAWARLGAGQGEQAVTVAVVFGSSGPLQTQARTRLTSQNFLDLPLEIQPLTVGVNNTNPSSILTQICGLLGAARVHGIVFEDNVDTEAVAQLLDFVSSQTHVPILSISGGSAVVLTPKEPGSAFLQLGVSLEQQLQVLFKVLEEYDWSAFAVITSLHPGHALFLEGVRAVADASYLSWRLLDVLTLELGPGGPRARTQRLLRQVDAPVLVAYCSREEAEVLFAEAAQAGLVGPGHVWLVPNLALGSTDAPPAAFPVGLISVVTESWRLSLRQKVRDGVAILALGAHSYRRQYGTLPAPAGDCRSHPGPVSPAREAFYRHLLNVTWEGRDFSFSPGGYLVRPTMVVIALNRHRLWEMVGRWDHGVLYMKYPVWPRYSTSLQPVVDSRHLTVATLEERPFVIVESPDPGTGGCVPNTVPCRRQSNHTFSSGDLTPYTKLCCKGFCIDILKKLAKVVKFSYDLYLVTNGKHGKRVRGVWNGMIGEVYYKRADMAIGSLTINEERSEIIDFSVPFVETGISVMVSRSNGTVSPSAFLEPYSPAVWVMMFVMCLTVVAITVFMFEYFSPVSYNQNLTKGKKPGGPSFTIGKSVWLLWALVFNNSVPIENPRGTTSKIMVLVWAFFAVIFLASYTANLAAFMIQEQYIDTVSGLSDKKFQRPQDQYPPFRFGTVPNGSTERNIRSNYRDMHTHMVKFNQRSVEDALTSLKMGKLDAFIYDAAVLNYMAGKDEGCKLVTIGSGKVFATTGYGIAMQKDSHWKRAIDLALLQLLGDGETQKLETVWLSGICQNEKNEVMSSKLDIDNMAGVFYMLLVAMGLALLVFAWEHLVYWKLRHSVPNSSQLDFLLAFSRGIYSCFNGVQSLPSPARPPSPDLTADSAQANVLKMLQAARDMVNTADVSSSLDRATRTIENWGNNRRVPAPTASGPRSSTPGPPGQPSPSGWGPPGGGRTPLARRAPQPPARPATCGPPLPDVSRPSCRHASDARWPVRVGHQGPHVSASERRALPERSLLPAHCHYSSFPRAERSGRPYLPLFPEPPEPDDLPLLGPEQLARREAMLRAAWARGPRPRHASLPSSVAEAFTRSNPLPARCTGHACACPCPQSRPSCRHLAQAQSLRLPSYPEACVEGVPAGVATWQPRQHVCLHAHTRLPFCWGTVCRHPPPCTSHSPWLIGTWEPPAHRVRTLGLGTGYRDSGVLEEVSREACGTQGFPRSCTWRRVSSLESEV
measurement.name: pIC50
Lab note — pIC50 values are minus log10 of concentrations in M.

Asked: What measured pIC50 goes with C[C@@H]1CC[C@H]2[C@@H](CC[C@@H]3C[C@H](OS(=O)(=O)O)CC[C@@]32C)C1.c1ccncc1 ?
Given back: 4.95

----------
assay: Inhibition of AMPAR in rat hippocampal neurons assessed as suppression of AMPA-induced current by whole-cell patch-clamp method; assay type: tissue-based; conditions: Hippocampus
measurement.name: IC50 (µM)
// note: answer is a bare numeric in µM

Asked: Any idea what its IC50 is? The compound is C[C@@H]1CC[C@H]2[C@@H](CC[C@@H]3C[C@H](OS(=O)(=O)O)CC[C@@]32C)C1.c1ccncc1
Given back: 83

----------
target: Ionotropic glutamate receptor NMDA 1/2D (Rattus norvegicus, UniProt P35439+Q62645); test: Inhibition of recombinant rat GluN1a/GluN2D co-expressed in HEK293 cells assessed as suppression of glutamate-induced current by patch-clamp method
Sequence (Q62645 whole entry, other chains not shown): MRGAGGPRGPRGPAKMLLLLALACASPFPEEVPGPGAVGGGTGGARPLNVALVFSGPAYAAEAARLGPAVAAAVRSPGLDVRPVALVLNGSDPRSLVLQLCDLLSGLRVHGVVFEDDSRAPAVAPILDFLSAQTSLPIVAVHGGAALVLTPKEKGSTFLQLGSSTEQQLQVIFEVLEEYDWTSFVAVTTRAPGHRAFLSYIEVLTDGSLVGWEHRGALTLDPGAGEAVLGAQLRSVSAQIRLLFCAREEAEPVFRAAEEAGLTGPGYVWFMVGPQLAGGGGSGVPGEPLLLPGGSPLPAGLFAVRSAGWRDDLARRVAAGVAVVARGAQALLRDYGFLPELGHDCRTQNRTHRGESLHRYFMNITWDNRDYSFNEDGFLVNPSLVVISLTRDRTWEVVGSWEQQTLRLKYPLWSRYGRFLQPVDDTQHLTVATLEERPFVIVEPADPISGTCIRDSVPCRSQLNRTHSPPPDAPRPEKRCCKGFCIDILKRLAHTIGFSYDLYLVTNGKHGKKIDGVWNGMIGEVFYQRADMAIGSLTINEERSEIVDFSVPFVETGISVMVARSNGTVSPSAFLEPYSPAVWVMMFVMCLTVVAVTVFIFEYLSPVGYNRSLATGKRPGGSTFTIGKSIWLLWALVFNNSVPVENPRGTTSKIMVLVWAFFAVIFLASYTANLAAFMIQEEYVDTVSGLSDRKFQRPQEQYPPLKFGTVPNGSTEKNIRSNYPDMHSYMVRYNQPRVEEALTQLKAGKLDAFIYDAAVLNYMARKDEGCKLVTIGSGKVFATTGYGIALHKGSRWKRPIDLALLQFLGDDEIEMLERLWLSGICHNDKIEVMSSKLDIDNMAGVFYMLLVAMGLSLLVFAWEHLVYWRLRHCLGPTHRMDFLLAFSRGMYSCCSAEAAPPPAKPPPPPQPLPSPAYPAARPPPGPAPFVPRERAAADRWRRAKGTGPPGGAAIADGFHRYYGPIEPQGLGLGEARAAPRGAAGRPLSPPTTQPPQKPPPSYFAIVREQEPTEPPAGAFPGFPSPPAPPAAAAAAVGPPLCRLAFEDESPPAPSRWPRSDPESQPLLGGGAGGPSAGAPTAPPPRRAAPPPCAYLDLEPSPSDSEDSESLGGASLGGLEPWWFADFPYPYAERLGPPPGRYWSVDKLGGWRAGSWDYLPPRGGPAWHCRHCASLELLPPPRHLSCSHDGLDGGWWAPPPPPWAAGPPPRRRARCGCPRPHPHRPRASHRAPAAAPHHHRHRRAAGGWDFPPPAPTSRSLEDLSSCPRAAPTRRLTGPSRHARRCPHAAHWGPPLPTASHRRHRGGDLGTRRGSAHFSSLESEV
measurement.name: pIC50
Please report pIC50 as the negative decimal logarithm of the molar concentration, giving only the number.

Asked: Test system Ionotropic glutamate receptor NMDA 1/2D (Rattus norvegicus, UniProt P35439+Q62645); read-out pIC50; what value for C[C@@H]1CC[C@H]2[C@@H](CC[C@@H]3C[C@H](OS(=O)(=O)O)CC[C@@]32C)C1.c1ccncc1 ?
Given back: 5.09

----------
test: Inhibition of NMDAR in rat hippocampal neurons assessed as suppression of NMDA-induced current by whole-cell patch-clamp method; type: tissue-based; conditions: Hippocampus
measurement.name: pIC50
Expect pIC50 as a plain number equal to -log10 of the molar concentration.

Asked: I am curious: what pIC50 value has been reported for C[C@@H]1CC[C@H]2[C@@H](CC[C@@H]3C[C@H](OS(=O)(=O)O)CC[C@@]32C)C1.c1ccncc1 ?
Given back: 4.86

----------
Give measured IC50 for each item. Keep answers brief.
target: Glutamate NMDA receptor; Grin1/Grin2b (Rattus norvegicus, UniProt P35439+Q00960); assay: Inhibition of recombinant rat GluN1a/GluN2B co-expressed in HEK293 cells assessed as suppression of glutamate-induced current by patch-clamp method
State the answer as a number, implicitly in µM.

Asked: Query (compound): COC(=O)[C@@]1(C)CC[C@H]2[C@@H](CC[C@@H]3C[C@H](OS(=O)(=O)O)CC[C@@]32C)[C@@H]1C.c1ccncc1 ; field requested: IC50
Given back: 74.6

Asked: Same question, COC[C@@]1(C)CC[C@H]2[C@@H](CC[C@@H]3C[C@H](OC(=O)CCC(=O)O)CC[C@@]32C)[C@@H]1C this time
Given back: 29.2

Asked: Moving on to the next compound: COC[C@@]1(C)CC[C@H]2[C@@H](CC[C@@H]3C[C@H](OC(=O)CCC(=O)O)CC[C@@]32C)C1
Given back: 33.3

Asked: Now consider C[C@@H]1CC[C@H]2[C@@H](CC[C@@H]3C[C@H](OS(=O)(=O)O)CC[C@@]32C)C1.c1ccncc1 and answer again.
Given back: 15.6

Asked: Subsequent entry: COC[C@@]1(C)CC[C@H]2[C@@H](CC[C@@H]3C[C@H](OS(=O)(=O)O)CC[C@@]32C)C1.c1ccncc1
Given back: 77

Asked: Entry to check: COC(=O)[C@@]1(C)CC[C@H]2[C@@H](CC[C@@H]3C[C@H](OC(=O)CCC(=O)O)CC[C@@]32C)[C@@H]1C
Given back: 63.4

Asked: Now the compound COC(=O)[C@@]1(C)CC[C@H]2[C@@H](CC[C@@H]3C[C@H](OC(=O)CCC(=O)O)CC[C@@]32C)C1
Given back: 87.6

----------
target: Glutamate NMDA receptor; Grin1/Grin2a (Rattus norvegicus, UniProt P35439+Q00959); experiment: Inhibition of recombinant rat GluN1a/GluN2A co-expressed in HEK293 cells assessed as suppression of glutamate-induced current by patch-clamp method; format: cell-based
Sequence (Q00959 whole entry, other chains not shown): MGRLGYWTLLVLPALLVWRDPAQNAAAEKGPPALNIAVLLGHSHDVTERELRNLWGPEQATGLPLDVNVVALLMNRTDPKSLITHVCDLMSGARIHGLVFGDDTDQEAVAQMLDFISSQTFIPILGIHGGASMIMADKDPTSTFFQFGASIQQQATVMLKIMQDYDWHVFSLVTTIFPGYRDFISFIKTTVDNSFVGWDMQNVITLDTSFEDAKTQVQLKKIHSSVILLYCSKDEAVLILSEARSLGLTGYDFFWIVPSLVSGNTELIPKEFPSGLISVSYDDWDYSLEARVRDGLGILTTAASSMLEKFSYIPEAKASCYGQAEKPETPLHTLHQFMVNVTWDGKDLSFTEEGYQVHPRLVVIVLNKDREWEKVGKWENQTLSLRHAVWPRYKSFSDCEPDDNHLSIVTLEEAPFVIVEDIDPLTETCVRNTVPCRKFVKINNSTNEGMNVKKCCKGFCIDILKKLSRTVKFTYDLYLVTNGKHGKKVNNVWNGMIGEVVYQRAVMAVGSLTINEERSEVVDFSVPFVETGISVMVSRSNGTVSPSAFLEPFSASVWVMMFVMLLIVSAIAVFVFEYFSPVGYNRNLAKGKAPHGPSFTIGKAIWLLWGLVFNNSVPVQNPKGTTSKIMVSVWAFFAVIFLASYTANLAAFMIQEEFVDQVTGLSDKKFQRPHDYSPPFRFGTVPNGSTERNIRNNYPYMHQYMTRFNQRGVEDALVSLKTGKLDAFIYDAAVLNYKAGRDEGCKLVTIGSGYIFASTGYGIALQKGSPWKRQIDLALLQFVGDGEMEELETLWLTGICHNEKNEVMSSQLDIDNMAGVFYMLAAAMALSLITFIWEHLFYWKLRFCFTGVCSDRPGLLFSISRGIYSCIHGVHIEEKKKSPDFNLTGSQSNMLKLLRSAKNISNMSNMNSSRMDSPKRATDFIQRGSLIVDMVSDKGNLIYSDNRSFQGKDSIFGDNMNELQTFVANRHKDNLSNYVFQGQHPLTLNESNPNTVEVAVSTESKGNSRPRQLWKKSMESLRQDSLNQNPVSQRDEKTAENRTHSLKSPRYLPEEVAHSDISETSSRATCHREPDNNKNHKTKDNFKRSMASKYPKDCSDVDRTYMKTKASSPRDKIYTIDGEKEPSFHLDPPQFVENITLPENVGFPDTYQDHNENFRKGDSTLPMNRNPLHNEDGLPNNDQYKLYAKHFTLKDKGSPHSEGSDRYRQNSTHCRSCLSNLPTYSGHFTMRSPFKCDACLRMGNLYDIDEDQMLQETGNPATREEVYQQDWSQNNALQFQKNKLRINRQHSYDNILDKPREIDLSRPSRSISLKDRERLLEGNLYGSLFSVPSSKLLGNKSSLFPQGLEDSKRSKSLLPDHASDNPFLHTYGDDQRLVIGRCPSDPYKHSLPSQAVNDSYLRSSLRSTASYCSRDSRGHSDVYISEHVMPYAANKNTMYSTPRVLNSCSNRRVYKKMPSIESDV
measurement.name: pIC50
// field semantics: pIC50 = negative decimal log of concentration (mol/L)

Asked: Entry C[C@@H]1CC[C@H]2[C@@H](CC[C@@H]3C[C@H](OS(=O)(=O)O)CC[C@@]32C)C1.c1ccncc1 : reported pIC50 = ?
Given back: 4.96
